# Assayed target: T1, cynomolgus PRLR ECD (Macaca fascicularis, UniProt A0A2K5WXK1)
# T1 construct: antibodies against human and cynomolgus PRLR ECD
# T1 sequence (A0A2K5WXK1 25-234): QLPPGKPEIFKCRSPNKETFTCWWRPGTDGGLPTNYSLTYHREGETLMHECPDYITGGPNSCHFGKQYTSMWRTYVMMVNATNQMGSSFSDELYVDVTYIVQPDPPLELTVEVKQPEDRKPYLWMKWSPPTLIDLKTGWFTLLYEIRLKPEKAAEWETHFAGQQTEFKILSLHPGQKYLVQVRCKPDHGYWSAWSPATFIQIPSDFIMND
# Test method notes: Biacore kinetic titration, antibody captured on Protein A/G
# Type: binding
# Measurement context: Table 9, Cyno PRLR ECD; unit not given
Could you please report measured kd for the items listed next?

Recorded kd of he.06.642-1: HUMAN-ENGINEERED antibody from XHA.06.642; variable regions SEQ ID NO: 88 and SEQ ID NO: 89 by order of listing (antibody, V domains shown) VH: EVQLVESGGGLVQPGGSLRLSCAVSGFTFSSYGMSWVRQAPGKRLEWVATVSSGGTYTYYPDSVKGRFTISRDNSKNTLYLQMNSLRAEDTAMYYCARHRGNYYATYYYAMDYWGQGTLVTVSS VL: DIVLTQSPDSLAVSLGERATINCKASKSVSTSGYTYMHWYQQKPGQPPKLLIYLASNRESGVPDRFSGSGSGTDFTLTISPVQAEDVATYYCQHSGELPPSFGQGTKLEIK , please.
3.8E−03

Recorded kd of he.06.275-4: HUMAN-ENGINEERED antibody from XHA.06.275; variable regions SEQ ID NO: 92 and SEQ ID NO: 94 by order of listing (antibody, V domains shown) VH: QVQLQESGPGLVKPSQTLSLTCTVSGYSITSDYAWNWIRQFPGKGLEWMGYISYSGSTSYNPSLKSRITISRDTSKNQFSLQLNSVTAADTAVYFCARDYGYVFDYWGQGTTLTVSS VL: DVQITQSPSSLSASPGDRITLTCRASKNIYKYLAWYQEKPGKANKLLIYSGSTLHSGIPSRFSGSGSGTDFTLTISSLQPEDFAMYYCQQHNDYPYTFGQGTKLEIK , please.
6.0E−04

Recorded kd of he.06.275-1: HUMAN-ENGINEERED antibody from XHA.06.275; variable regions SEQ ID NO: 91 and SEQ ID NO: 93 by order of listing (antibody, V domains shown) VH: DVQLQESGPGLVKPSQTLSLTCTVTGYSITSDYAWNWIRQFPGKKLEWMGYISYSGSTSYNPSLKSRITISRDTSKNQFSLQLNSVTAADTATYFCARDYGYVFDYWGQGTTLTVSS VL: DVQITQSPSSLSASPGDRITLTCRASKNIYKYLAWYQEKPGKTNNLLIYSGSTLHSGIPSRFSGSGSGTDFTLTISSLQPEDFAMYYCQQHNDYPYTFGQGTKLEIK , please.
5.7E−04

Recorded kd of he.06.275-3: HUMAN-ENGINEERED antibody from XHA.06.275; variable regions SEQ ID NO: 92 and SEQ ID NO: 93 by order of listing (antibody, V domains shown) VH: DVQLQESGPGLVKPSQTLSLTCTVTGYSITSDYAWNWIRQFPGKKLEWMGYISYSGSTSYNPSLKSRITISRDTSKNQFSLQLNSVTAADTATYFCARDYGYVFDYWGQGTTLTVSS VL: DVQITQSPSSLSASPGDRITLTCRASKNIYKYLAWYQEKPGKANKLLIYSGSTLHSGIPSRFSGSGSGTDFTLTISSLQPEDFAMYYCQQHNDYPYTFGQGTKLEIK , please.
5.0E−04

Recorded kd of he.06.275-2: HUMAN-ENGINEERED antibody from XHA.06.275; variable regions SEQ ID NO: 91 and SEQ ID NO: 94 by order of listing (antibody, V domains shown) VH: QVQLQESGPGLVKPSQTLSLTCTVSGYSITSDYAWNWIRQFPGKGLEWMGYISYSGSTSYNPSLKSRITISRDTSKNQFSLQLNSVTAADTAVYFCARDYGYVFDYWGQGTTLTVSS VL: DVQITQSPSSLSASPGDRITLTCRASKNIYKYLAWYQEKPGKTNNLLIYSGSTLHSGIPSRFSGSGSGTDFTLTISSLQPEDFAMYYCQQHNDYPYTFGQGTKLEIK , please.
6.9E−04

Recorded kd of he.06.642-2: HUMAN-ENGINEERED antibody from XHA.06.642; variable regions SEQ ID NO: 88 and SEQ ID NO: 90 by order of listing (antibody, V domains shown) VH: EVQLVESGGGLVQPGGSLRLSCAVSGFTFSSYGMSWVRQAPGKGLEWVATVSSGGTYTYYPDSVKGRFTISRDNSKNTLYLQMNSLRAEDTAVYYCARHRGNYYATYYYAMDYWGQGTLVTVSS VL: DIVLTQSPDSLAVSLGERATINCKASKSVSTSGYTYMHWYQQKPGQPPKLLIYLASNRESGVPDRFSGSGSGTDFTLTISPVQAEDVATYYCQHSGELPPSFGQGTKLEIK , please.
8.3E−03

Hey, just so you know, these numbers are from patent US9005614B2.
